Tested on: Puccinia recondita tritici (leaf rust)
experiment: Test 1 greenhouse foliar spray screen, leaf rust on wheat
Format: in vivo
recordedConditions: Puccinia recondita, foliar, Test 1, foliar spray on wheat; disease control rating at 400 ppm / 100 ppm
endpointLabel: pest or weed control at 400 ppm

Example entries and their recorded answers appear below.
compound: CC(C)(C)c1ccc(CCOc2ccnc3cc(Cl)ccc23)cc1 [Example 231]
pest or weed control at 400 ppm: 0 to 19%
//
compound: Fc1cccc2c(NCCc3ccc(OCc4ccccc4)cc3)ccnc12 [Example 291]
pest or weed control at 400 ppm: 90 to 100%
//
compound: Fc1cccc2c(OCCc3cccs3)ccnc12 [Example 246]
pest or weed control at 400 ppm: 90 to 100%
//
compound: Fc1cccc2c(OCCc3cccc4ccccc34)ccnc12 [Example 244]
pest or weed control at 400 ppm: 20 to 89%
//
compound: c1ccc(CCOc2ccnc3ccccc23)cc1 [Example 208, 4-(2-phenylethoxy)quinoline]
pest or weed control at 400 ppm: 90 to 100%
//
compound: COc1cccc(CCOc2ccnc3c(F)cccc23)c1 [Example 195]
pest or weed control at 400 ppm: 90 to 100%
//
compound: CC(=O)Oc1ccc(CCN(C(C)=O)c2ccnc3c(F)cccc23)cc1 [Example 273]
pest or weed control at 400 ppm: 20 to 89%
//
compound: Cc1ccc(CCOc2ccnc3c(OCCc4ccc(C)cc4)cccc23)cc1 [Example 251]
pest or weed control at 400 ppm: 0 to 19%

Shifting focus to the compound that follows.
Request: What value of pest or weed control at 400 ppm has been reported for the following compound? Clc1cc(Cl)c2c(OCCc3ccc(-c4ccccc4)cc3)ccnc2c1 [Example 194]
Result: 0 to 19%
